systemUnderTest: Neu5Gc(a2-3)Gal(b1-4)Glc
testSummary: glycan array binding signal (z-score within array); higher = stronger binding
assayContext: glycan notation: IUPAC condensed, linker removed
The entries come from a sample that favours the strongest signals as a whole.
Param threshold (-0.2) applies to glycan array binding signal (z-score); output Fulfilled when value >= threshold, Not fulfilled when value < threshold.

Query: In plain terms: is recorded glycan array binding signal (z-score) at least -0.2 for EEA (Euonymus europaeus) (protein) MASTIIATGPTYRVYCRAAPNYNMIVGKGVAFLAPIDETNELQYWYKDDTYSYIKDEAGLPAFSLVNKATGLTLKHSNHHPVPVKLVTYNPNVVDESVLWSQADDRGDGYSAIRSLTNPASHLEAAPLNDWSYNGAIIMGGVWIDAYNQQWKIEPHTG ?
Response: Fulfilled

Query: Form field: glycan array binding signal (z-score) at least -0.2? Entry: MPA (Maclura pomifera), P18674 (protein) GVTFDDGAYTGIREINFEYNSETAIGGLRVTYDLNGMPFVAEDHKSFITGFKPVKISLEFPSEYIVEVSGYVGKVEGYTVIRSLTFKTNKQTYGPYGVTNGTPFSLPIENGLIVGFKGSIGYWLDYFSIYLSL
Response: Fulfilled

Query: For this binder, is measured glycan array binding signal (z-score) -0.2 or higher? Banana lectin (Musa acuminata) (protein) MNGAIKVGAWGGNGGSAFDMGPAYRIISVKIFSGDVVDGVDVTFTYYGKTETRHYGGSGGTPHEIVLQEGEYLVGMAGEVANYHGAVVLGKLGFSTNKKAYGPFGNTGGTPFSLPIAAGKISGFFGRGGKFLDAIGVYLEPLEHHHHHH
Response: Not fulfilled

Query: Is it the case that OS9 (Arabidopsis thaliana) (protein) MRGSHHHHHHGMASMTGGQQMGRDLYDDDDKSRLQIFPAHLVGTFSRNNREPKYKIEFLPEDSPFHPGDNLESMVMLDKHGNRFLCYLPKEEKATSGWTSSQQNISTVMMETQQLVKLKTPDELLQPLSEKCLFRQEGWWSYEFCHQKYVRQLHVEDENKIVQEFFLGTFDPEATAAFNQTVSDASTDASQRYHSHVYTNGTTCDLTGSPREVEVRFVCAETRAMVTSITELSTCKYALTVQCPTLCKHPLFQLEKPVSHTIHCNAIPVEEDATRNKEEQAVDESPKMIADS has glycan array binding signal (z-score) reaching or exceeding -0.2?
Response: Not fulfilled

Query: I'd appreciate it if you could say whether Microvirin-2 (Microcystis aeruginosa) (protein) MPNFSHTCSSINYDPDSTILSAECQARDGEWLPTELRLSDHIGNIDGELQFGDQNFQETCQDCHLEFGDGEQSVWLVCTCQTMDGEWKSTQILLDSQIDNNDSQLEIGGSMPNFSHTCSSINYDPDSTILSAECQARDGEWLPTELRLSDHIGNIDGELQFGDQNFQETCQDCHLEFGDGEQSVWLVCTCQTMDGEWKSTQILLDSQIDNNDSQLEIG has glycan array binding signal (z-score) at least equal to -0.2.
Response: Fulfilled

Query: Confirm if glycan array binding signal (z-score) reported for the binder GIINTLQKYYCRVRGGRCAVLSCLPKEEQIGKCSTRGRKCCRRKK [Beta-Defensin 3 (Homo sapiens), P81534] is -0.2 or above.
Response: Fulfilled

Query: Please check the record HPAIIITrx (Helix pomatia), Q1KM18 (protein) MLFVTIISLGLLAIVHGQCALKTIAFSAAIDREQTFDANQVVIYDIVITNHGNAYDNSTGLFTAPVDGMYSFQLNLLTIKEKEGWLELVHNGQLKVSVYAKQDSTYDSSSNSVIIKMKEGDRVNVRAHKKSGLFGRDDELYNTFSGHFLSGL and state if its glycan array binding signal (z-score) is at or above -0.2.
Response: Not fulfilled

Query: Could you tell me if the measured glycan array binding signal (z-score) of DC-ASGPR S+GEE (Homo sapiens) (protein) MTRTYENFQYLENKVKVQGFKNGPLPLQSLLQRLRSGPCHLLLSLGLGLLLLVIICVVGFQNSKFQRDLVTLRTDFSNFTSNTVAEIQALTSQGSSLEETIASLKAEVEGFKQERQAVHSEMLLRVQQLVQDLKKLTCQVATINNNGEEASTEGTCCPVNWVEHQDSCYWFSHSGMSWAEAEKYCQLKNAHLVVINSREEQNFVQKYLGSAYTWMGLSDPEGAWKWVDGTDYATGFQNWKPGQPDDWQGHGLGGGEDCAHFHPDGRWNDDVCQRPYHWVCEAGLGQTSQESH reaches -0.2 or more?
Response: Not fulfilled
